TEST_SYSTEM: Human immunodeficiency virus type 1 reverse transcriptase (Human immunodeficiency virus 1, UniProt Q72547)
PROCEDURE_DETAILS: Ability to inhibit HIV-1 IIIB reverse transcriptase catalyzed incorporation of tritiated thymidine triphosphate onto a biotinylated rA.dT template primer
// NB: equality with 4 µM counts as false (0); only IC50 strictly below is true (1)

Below are worked cases with known answers.
SMILES_RECORD: CCN1c2ncccc2-c2nccn2-c2ccc(O)nc21
LABEL: false (0)
--
SMILES_RECORD: CCN1c2ncccc2-c2nccn2-c2c(C)ccnc21
LABEL: true (1)
--
SMILES_RECORD: CCN1c2ncccc2-c2nnc(C(C)C)n2-c2cccnc21
LABEL: false (0)
--
SMILES_RECORD: CCN1c2ncccc2-c2ncc(C)n2-c2ccc(OC)nc21
LABEL: true (1)
--
SMILES_RECORD: CCN1c2ncccc2-c2ncc(C)n2-c2ccc(N(C)C)nc21
LABEL: true (1)

Threshold test, IC50 < 4 µM: `Cc1nnc2n1-c1cccnc1N(C1CC1)c1ncccc1-2` false (0)

Please let me know if `CCc1cnc2n1-c1cccnc1N(CC)c1ncccc1-2` shows IC50 below 4 µM. false (0)
